Data provenance is ChEMBL document CHEMBL1201862.

Reported GI50 values for the following compounds.
test system: MOLT-4; experiment: NCI tumour cell line growth inhibition, 48 h
Calls of active or inactive are those of the source. No stated cut-off is given here; in the data, active = GI50 up to about 1.1 µM and inactive = higher.
Metric: GI50

# Compound, Metric, Observed
records = [
    ("Cn1c2c(c3ccccc31)CCN(CCN1CCN(c3cccc(Cl)c3)CC1)C2=O", "GI50", "43.8 µM (inactive)"),
    ("CC(=O)O[C@H]1CCn2c3c(c(C)c21)C(=O)C(N1CC1)=C(C)C3=O", "GI50", "> 10 µM (inactive)"),
    ("COC1CC(OC2C(C)OC(OC3C(C)OC(OC4C(C)OC(O[C@H]5CC[C@@]6(C)C(=CC[C@]7(O)[C@@H]6C[C@@H](OC(=O)/C=C/c6ccccc6)[C@@]6(C)[C@]7(O)CC[C@@]6(O)C(C)=O)C5)CC4OC)CC3OC)CC2OC)OC(C)C1O (stereo partly drawn)", "GI50", "> 12.5 µM (inactive)"),
]

====

system: HL-60; experiment: NCI tumour cell line growth inhibition, 48 h
The source made the active and inactive calls. No stated cut-off is given here; in the data, active = GI50 up to about 1.1 µM and inactive = higher.
Outcome codes: 1 = active, 0 = inactive

# Compound, Cat
rows = [
    ("O=C(NCCCCNCCCNC(=O)OCc1ccccc1)OCc1ccccc1", 0),
    ("CC(=O)NC1C(OCc2ccccc2)OC(CO)C(O)C1OC(C)C(=O)NC(C(=O)NC(CCC(=O)Nc1ccc2c(c1)CN1C(=O)c3ccccc3C1=N2)C(N)=O)C(C)C (stereo not given)", 0),
    ("CN1CN(c2ccccc2)C2(CCN(CCC3COc4ccccc4O3)CC2)C1=O (stereo not given)", 0),
    ("C=CC1=CSNN1", 0),
    ("O=[N+]([O-])C(=C(N1CCCCC1)N1CCCCC1)/C(Cl)=C(\\Cl)Br", 0),
    ("CN(C)c1ccc(/C=N\\N2C(=O)c3ccccc3C2=O)cc1", 0),
    ("CSc1ccc2c(cc1=O)[C@@H](NC(=O)c1ccc(Cl)cc1)CCc1cc(O)c(O)c(O)c1-2", 0),
    ("Oc1c(/N=N/c2ccccc2)c2ccccc2c2ccc3ccccc3c12", 0),
    ("Nc1ncc(Br)c(NCC2(CO)CCC2)n1", 0),
    ("CC(/C=C/c1ncccc1OCCCCCC(=O)O)=N\\NC1=NCCN1", 0),
    ("C=C1CCC2[C@@H](CCC3[C@]2(C)CCC[C@]3(C)C(=O)OC)C1CC=O (stereo not given in full)", 0),
    ("CSc1c(C#N)c(O)n(-c2ccc(Cl)cc2)c(=O)c1C(C)=O", 0),
    ("CCOC(=O)CC/C(C)=N\\n1c(Cc2ccc(Cl)cc2)n[nH]c1=O", 0),
    ("CC1(O)C=CC2CCC1C2O (stereo not given)", 0),
    ("COc1ccc2c(c1)OCC1=C2Oc2ccccc2C1", 0),
    ("Cc1cc(=O)oc2cc(O)ccc12", 0),
    ("Oc1ccc(Br)cc1/C=N/c1c(NC2CCCCC2)oc2ccc(Br)cc12", 0),
    ("Cc1nc2c(O)cc3c4c(=O)n(C)c(=O)n(C)c4n(Cc4ccccc4)c3c2nc1C", 0),
    ("CCCCCCCCCC1CC(=O)NCC(=O)NC(C(C)C)C(=O)NC(CC(C)C)C(=O)NC(C)C(=O)NC(C(C)C)C(=O)O1 (stereo not given)", 0),
    ("C/C1=C\\[C@H](C)C[C@H](C)OC(=O)C[C@H](c2ccc(O)cc2)NC(=O)[C@@H](Cc2c(Br)[nH]c3ccccc23)N(C)C(=O)[C@H](C)NC(=O)[C@@H](C)C1 [JASPAMIDE]", 1),
    ("O=C(O)c1cc2c3ccccc3nc-2c[nH]1", 0),
    ("O=S1(=O)NN=C(NCc2ccc(Cl)cc2)c2ccccc21", 0),
    ("COc1ccc(C(O)CC(O)(C(F)(F)F)C(F)(F)F)cc1 (stereo not given)", 0),
    ("COc1cc(NS(C)(=O)=O)ccc1N1Cc2c[nH]c3ccc4nccc1c4c23", 0),
    ("CC(=O)O[C@H]1CC[C@H]2[C@@H]3CCc4cc(O)c(I)cc4[C@H]3CC[C@]12C", 0),
    ("C=C(C)CNCCN", 0),
    ("O=C1C=CC(=O)c2c1ccc1c3ccccc3n(-c3ccccn3)c21", 0),
    ("CC(=O)/C(=C\\n1c(=S)[nH]c2ccc([N+](=O)[O-])cc21)C(=O)Nc1ccccc1C", 0),
    ("c1ccc2c(NCCCCCCNc3cccc4ccccc34)cccc2c1", 0),
    ("COc1ccc2oc(=N)c(C(N)=O)cc2c1", 0),
]
